# Procedure Summary: Oral bioavailability in rat at 1 mg/kg
# Type: ADME, organism-based
# Condition Label: in vivo
Measurement Type: bioavailability (%)

Cc1ccc(-c2c(C)c3c(c(C)c2[C@H](OC(C)(C)C)C(=O)O)N(S(C)(=O)=O)Cc2cccc(F)c2-3)c(O)c1 ... 17.8

---

# Test system: MT4
# Procedure Summary: Cytotoxicity against human MT4 cells assessed as reduction in cell viability by MTT assay
# Assay type: functional
# Condition Label: Homo sapiens, MT4
Below is a list of entries, each paired with its recorded CC50 value.
Measurement Type: CC50 (µM)

Cc1ccc(-c2c(C)c3c(c(C)c2[C@H](OC(C)(C)C)C(=O)O)N(S(C)(=O)=O)Cc2cc(C(F)(F)F)ccc2-3)cc1 ... 10
Cc1ccc(-c2c(C)c3c(c(C)c2[C@H](OC(C)(C)C)C(=O)O)N(S(C)(=O)=O)Cc2cc(C#N)ccc2-3)cc1 ... 35
COc1ccc2c(c1)CN(S(C)(=O)=O)c1c(C)c([C@H](OC(C)(C)C)C(=O)O)c(-c3ccc(C)cc3)c(C)c1-2 ... 17
Cc1ccc(-c2c(C)c3c(c(C)c2[C@H](OC(C)(C)C)C(=O)O)N(S(C)(=O)=O)Cc2ncccc2-3)cc1 ... 61
Cc1ccc(-c2c(C)c3c(c(C)c2[C@H](OC(C)(C)C)C(=O)O)N(S(C)(=O)=O)Cc2ccc(C)cc2-3)cc1 ... 13
Cc1c(-c2ccc(F)cc2)c([C@H](OC(C)(C)C)C(=O)O)c(C)c2c1-c1c(F)cccc1CN2S(C)(=O)=O ... 32
Cc1ccc(-c2c(C)c3c(c(C)c2[C@H](OC(C)(C)C)C(=O)O)N(S(C)(=O)=O)Cc2ccccc2-3)cc1 ... 21
